Entry source: BindingDB's records for patent US20240254093

List of pKi values.
Biological target: UniProtKB Q9HC97
Sequence (Q9HC97 whole entry, canonical isoform): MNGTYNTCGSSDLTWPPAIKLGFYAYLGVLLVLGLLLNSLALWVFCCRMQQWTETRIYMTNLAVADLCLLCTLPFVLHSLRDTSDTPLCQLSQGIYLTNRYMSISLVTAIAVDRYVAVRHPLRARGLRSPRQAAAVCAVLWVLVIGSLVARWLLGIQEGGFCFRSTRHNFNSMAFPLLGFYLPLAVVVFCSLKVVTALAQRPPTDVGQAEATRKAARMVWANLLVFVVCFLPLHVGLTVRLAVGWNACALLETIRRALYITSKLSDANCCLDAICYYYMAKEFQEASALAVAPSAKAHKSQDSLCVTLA
Test: Human GPR35a Isoform Binding Assay
Scale explanation: pKi corresponds to minus log10 of a concentration expressed in moles per litre.

compound structure | measurement target | assay endpoint | observed
O=c1c(O)c(Nc2cc(-c3ccccc3)cc(-c3nn[nH]n3)c2)c1=O | UniProtKB Q9HC97 | pKi | 9.46

Could you now consider this next compound?
stdin: Consider the compound shown here: O=c1c(O)c(Nc2cccc(-c3nn[nH]n3)c2)c1=O What is its recorded pKi?
stdout: 8.01
